Biological target: T1, mouse PTH1R overexpressed on CHO cells (mouse, UniProt P41593 27-591)
T1 sequence (looked up): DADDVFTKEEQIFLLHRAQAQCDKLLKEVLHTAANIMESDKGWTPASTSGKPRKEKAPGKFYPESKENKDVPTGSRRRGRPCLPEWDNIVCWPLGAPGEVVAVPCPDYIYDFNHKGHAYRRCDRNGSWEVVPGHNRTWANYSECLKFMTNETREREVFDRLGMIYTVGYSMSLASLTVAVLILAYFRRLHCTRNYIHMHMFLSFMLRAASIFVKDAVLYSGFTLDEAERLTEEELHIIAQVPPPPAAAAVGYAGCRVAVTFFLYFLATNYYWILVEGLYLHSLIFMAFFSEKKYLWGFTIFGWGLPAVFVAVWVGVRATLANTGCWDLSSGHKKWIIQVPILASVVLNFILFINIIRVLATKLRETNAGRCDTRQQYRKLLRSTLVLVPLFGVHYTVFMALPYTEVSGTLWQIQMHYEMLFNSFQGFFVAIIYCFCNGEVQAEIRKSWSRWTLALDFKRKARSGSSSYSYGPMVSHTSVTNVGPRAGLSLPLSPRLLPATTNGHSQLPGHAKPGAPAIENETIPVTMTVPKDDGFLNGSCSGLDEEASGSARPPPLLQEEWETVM
Test: cell-based or functional assay
QUANTITY_NAME: EC50 of PTH(1-34), cAMP assay, with 267 nM IgG (nM)
Report as a plain number; the unit nM is understood.

I would be grateful if you could share the reported EC50 of PTH(1-34), cAMP assay, with 267 nM IgG for XPA.85.336 (antibody, V domains shown, Light-chain-shuffled variant of XPA.85.017) VH: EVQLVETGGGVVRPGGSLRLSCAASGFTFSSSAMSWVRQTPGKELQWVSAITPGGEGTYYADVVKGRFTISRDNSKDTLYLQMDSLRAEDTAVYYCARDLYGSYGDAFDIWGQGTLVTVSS VL: QSVLTQPPSVSAAPGQKVTISCSGTGSNIGSNYVAWYQQLPGTAPKLLIYDDNKRPSGTPDRFSGSKSGTSATLVIAGLQTGDEADYYCGTWDNTLNVGGVFGGGTQLTVL . 0.144
